tested on: Fusarium oxysporum IBPPM 543; assay: Mycelial radial growth inhibition; type: cell-based; conditions: Fusarium oxysporum, IBPPM543, 216 h; 40 nmol/mL; age of the fungus 9 days; read-out: Inhibition value, I (%)

molecular.string	tested.system	inhibition of growth at 40 µM (%)
O=C(C[n+]1ccccc1)NN=C1C(=O)N(Cc2cccc(C(F)(F)F)c2)c2ccc(F)cc21.[Cl-]	Fusarium oxysporum IBPPM 543	51
O=C(C[n+]1ccccc1)NN=C1C(=O)N(Cc2c(F)cccc2Cl)c2ccc(F)cc21.[Cl-]	Fusarium oxysporum IBPPM 543	31
Cc1ccc[n+](CC(=O)N/N=C2\C(=O)N(Cc3c(F)cccc3Cl)c3ccccc32)c1C	Fusarium oxysporum IBPPM 543	39
Cc1ccc[n+](CC(=O)N/N=C2\C(=O)N(Cc3cccc(C(F)(F)F)c3)c3ccccc32)c1C	Fusarium oxysporum IBPPM 543	64
Cc1ccc[n+](CC(=O)N/N=C2\C(=O)N(Cc3ccccc3F)c3ccccc32)c1C	Fusarium oxysporum IBPPM 543	64
O=C(C[n+]1ccccc1)NN=C1C(=O)N(Cc2ccccc2F)c2ccc(F)cc21.[Cl-]	Fusarium oxysporum IBPPM 543	36
O=C(C[n+]1ccccc1)NN=C1C(=O)N(Cc2c(F)c(F)c(F)c(F)c2F)c2ccc(F)cc21.[Cl-]	Fusarium oxysporum IBPPM 543	36

====

System: Fusarium oxysporum IBPPM 543
Test: Mycelial radial growth inhibition
Format: cell-based
Conditions: Fusarium oxysporum, IBPPM543, 120 h; 20 nmol/mL; age of the fungus 5 days; read-out: Inhibition value, I (%)
Excerpt: Plant pathogenic bacterial strains Micrococcus luteus B-109, Pectobacterium atrosepticum 1043, Pectobacterium carotovorum subsp. carotovorum MI, Pseudomonas fluorescens EL-2.1, and Xanthomonas campestris B-610 and the fungal strain Fusarium oxysporum IBPPM 543 were from the Collection of Rhizosphere Microorganisms, IBPPM RAS (WFCC no. 975, WDCM no. 1021) (CM IBPPM, http://collection.ibppm.ru). […]
measurement.kind: inhibition of growth at 20 µM

molecular.string	value
O=C(C[n+]1ccccc1)NN=C1C(=O)N(Cc2c(F)c(F)c(F)c(F)c2F)c2ccc(F)cc21.[Cl-]	37%
O=C(C[n+]1ccccc1)NN=C1C(=O)N(Cc2cccc(C(F)(F)F)c2)c2ccc(F)cc21.[Cl-]	45%
O=C(C[n+]1ccccc1)NN=C1C(=O)N(Cc2c(F)cccc2Cl)c2ccc(F)cc21.[Cl-]	42%
Cc1ccc[n+](CC(=O)N/N=C2\C(=O)N(Cc3c(F)cccc3Cl)c3ccccc32)c1C	35%
Cc1ccc2c(c1)C(=NNC(=O)C[n+]1ccccc1)C(=O)N2Cc1cccc(C(F)(F)F)c1.[Cl-]	72%
O=C(C[n+]1ccccc1)NN=C1C(=O)N(Cc2ccccc2F)c2ccc(F)cc21.[Cl-]	45%

====

system: Micrococcus luteus B-109; test: Agar-well diffusion, bactericidal activity; assay type: cell-based; settings: Micrococcus luteus, B109, 2 mM/L; average of 3 experiments; read-out: width of the inhibition zone (mm), M. luteus

molecular.string	measure.unit	zone of inhibition at 2000 µM
O=C(C[n+]1ccccc1)NN=C1C(=O)N(Cc2c(F)c(F)c(F)c(F)c2F)c2ccc(F)cc21.[Cl-]	mm	3
O=C(C[n+]1ccccc1)NN=C1C(=O)N(Cc2ccccc2F)c2ccc(F)cc21.[Cl-]	mm	4
Cc1ccc[n+](CC(=O)N/N=C2\C(=O)N(Cc3ccccc3F)c3ccccc32)c1C	mm	2
Cc1ccc2c(c1)C(=NNC(=O)C[n+]1ccccc1)C(=O)N2Cc1cccc(C(F)(F)F)c1.[Cl-]	mm	6
Cc1ccc[n+](CC(=O)N/N=C2\C(=O)N(Cc3cccc(C(F)(F)F)c3)c3ccccc32)c1C	mm	7
O=C(C[n+]1ccccc1)NN=C1C(=O)N(Cc2c(F)cccc2Cl)c2ccc(F)cc21.[Cl-]	mm	4
O=C(C[n+]1ccccc1)NN=C1C(=O)N(Cc2cccc(C(F)(F)F)c2)c2ccc(F)cc21.[Cl-]	mm	4
Cc1ccc[n+](CC(=O)N/N=C2\C(=O)N(Cc3c(F)cccc3Cl)c3ccccc32)c1C	mm	7

====

tested on: HuTu 80; test: MTT cell viability test, HuTu 80; assay type: cell-based, human; settings: IC50 normal cells (WI38) / IC50 HuTu 80
selectivity (SI) for HuTu 80 values for the molecules below.

molecule	tested.system	selectivity (SI) for HuTu 80
O=C1C(=O)N(Cc2ccccc2Cl)c2ccc(F)cc21 [Compound 3b]	HuTu 80	1.5
O=C1C(=O)N(Cc2c(F)cccc2Cl)c2ccc(F)cc21 [Compound 3d]	HuTu 80	2.5
O=c1[nH]cc(F)c(=O)[nH]1 [Compound 5-FU, 5-fluorouracil, reference compound]	HuTu 80	≤ 1
O=C1C(=O)N(Cc2ccccc2F)c2ccc(F)cc21 [Compound 3a]	HuTu 80	2.5

====

system: Phytophthora cactorum VKM F-985; test: Mycelial radial growth inhibition; type: cell-based; settings: Phytophthora cactorum, 72 h; 3 nmol/mL; age of the fungus 3 days; read-out: Inhibition value, I (%)
measurement.kind: inhibition of growth at 3 µM (%)

molecular.string	measure.unit	value
Cc1ccc[n+](CC(=O)N/N=C2\C(=O)N(Cc3ccccc3F)c3ccccc32)c1C	%	5
O=C(C[n+]1ccccc1)NN=C1C(=O)N(Cc2ccccc2F)c2ccc(F)cc21.[Cl-]	%	32
Cc1ccc2c(c1)C(=NNC(=O)C[n+]1ccccc1)C(=O)N2Cc1cccc(C(F)(F)F)c1.[Cl-]	%	23
Cc1ccc[n+](CC(=O)N/N=C2\C(=O)N(Cc3c(F)cccc3Cl)c3ccccc32)c1C	%	15
O=C(C[n+]1ccccc1)NN=C1C(=O)N(Cc2cccc(C(F)(F)F)c2)c2ccc(F)cc21.[Cl-]	%	7
Cc1ccc[n+](CC(=O)N/N=C2\C(=O)N(Cc3cccc(C(F)(F)F)c3)c3ccccc32)c1C	%	20

====

tested on: HuTu 80; test: MTT cell viability test, HuTu 80; assay type: cell-based, human; conditions: Homo sapiens, HuTu80; incubation time 24 h
IC50 values for the molecules below.

molecule	IC50 (µM)
CC(C)(C)c1ccc(CN2C(=O)C(=O)c3cc(F)ccc32)cc1 [Compound 4c]	43
O=C1C(=O)N(Cc2c(F)cccc2Cl)c2ccc(F)cc21 [Compound 3d]	31
O=C1C(=O)N(Cc2ccccc2F)c2ccc(F)cc21 [Compound 3a]	25.2
O=C1C(=O)N(Cc2ccc(Br)cc2F)c2ccccc21 [Compound 8b]	59.4
O=C1C(=O)N(Cc2ccc(F)cc2Cl)c2ccccc21 [Compound 8a]	64

====

compound	melting point
Cc1cc(C)cc(CN2C(=O)C(=O)c3cc(F)ccc32)c1 [Compound 4b]	97 to 98 °C
O=C1C(=O)N(Cc2cccc(C(F)(F)F)c2)c2ccc(F)cc21 [Compound 3e]	170 to 171 °C
Cc1ccc(CN2C(=O)C(=O)c3cc(F)ccc32)cc1 [Compound 4a]	111 to 112 °C
O=C(C[n+]1ccccc1)NN=C1C(=O)N(Cc2c(F)c(F)c(F)c(F)c2F)c2ccc(F)cc21.[Cl-] [Compound 5d]	165 to 166 °C
Cc1ccc2c(c1)C(=O)C(=O)N2Cc1cccc(C(F)(F)F)c1 [Compound 4e]	155 to 156 °C
O=C1C(=O)N(Cc2c(F)c(F)c(F)c(F)c2F)c2ccc(F)cc21 [Compound 3f]	112 to 113 °C
O=C(C[n+]1ccccc1)NN=C1C(=O)N(Cc2cccc(C(F)(F)F)c2)c2ccc(F)cc21.[Cl-] [Compound 5c]	172 to 173 °C
O=C(C[n+]1ccccc1)NN=C1C(=O)N(Cc2c(F)cccc2Cl)c2ccc(F)cc21.[Cl-] [Compound 5b]	152 to 153 °C
CC(C)(C)c1cc(CN2C(=O)C(=O)c3cc(F)ccc32)cc(C(C)(C)C)c1 [Compound 4d]	136 to 137 °C
O=C1C(=O)N(Cc2c(F)cccc2F)c2ccc(F)cc21 [Compound 3c]	131 to 132 °C
Cc1ccc2c(c1)C(=NNC(=O)C[n+]1ccccc1)C(=O)N2Cc1cccc(C(F)(F)F)c1.[Cl-] [Compound 5e]	202 to 203 °C
O=C(C[n+]1ccccc1)NN=C1C(=O)N(Cc2ccccc2F)c2ccc(F)cc21.[Cl-] [Compound 5a]	180 to 182 °C
CC(C)(C)c1ccc(CN2C(=O)C(=O)c3cc(F)ccc32)cc1 [Compound 4c]	123 to 124 °C

====

system: Fusarium oxysporum IBPPM 543; assay: Mycelial radial growth inhibition; type: cell-based; conditions: Fusarium oxysporum, IBPPM543, 72 h; 1 nmol/mL; age of the fungus 3 days; read-out: Inhibition value, I (%)
measurement.kind: inhibition of growth at 1 µM

molecular.string	measurement.kind	value
Cc1ccc[n+](CC(=O)N/N=C2\C(=O)N(Cc3c(F)cccc3Cl)c3ccccc32)c1C	inhibition of growth at 1 µM	13%
O=C(C[n+]1ccccc1)NN=C1C(=O)N(Cc2cccc(C(F)(F)F)c2)c2ccc(F)cc21.[Cl-]	inhibition of growth at 1 µM	22%
O=C(C[n+]1ccccc1)NN=C1C(=O)N(Cc2c(F)cccc2Cl)c2ccc(F)cc21.[Cl-]	inhibition of growth at 1 µM	9%
O=C(C[n+]1ccccc1)NN=C1C(=O)N(Cc2c(F)c(F)c(F)c(F)c2F)c2ccc(F)cc21.[Cl-]	inhibition of growth at 1 µM	9%
